# targetEntity: Estrogen receptor beta (Homo sapiens)
# testName: Displacement of [2,4,6,7-3H]17beta-estradiol from human recombinant ERbeta receptor by liquid scintillation counter relative to 17-beta-estradiol
Listed next: entries and their corresponding relative binding affinity (RBA).
valueKind: relative binding affinity (RBA)

>>> print(df.to_string())
                               smi  measured
0       CN(c1ccc(O)cc1)c1ccc(O)cc1   < 0.001
1          Oc1ccc(Nc2ccc(O)cc2)cc1   < 0.001
2  Oc1ccc(N(CC2CC2)c2ccc(O)cc2)cc1   < 0.001
